B1: TSN (parent)
chain: AFVVYLETETLVTREAVTEILGIE

# Variants of: B1
# assay-protocol: protein stability index of a GFP-peptide fusion (GPS, HEK-293T) (PSI 1-6); higher = more stable;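 further: lentivirally expressed fusions sorted by FACS into six bins by GFP to DsRed ratio, PSI derived from sequencing read proportions per bin multiplied by bin number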
# cond: c terminus: a fixed tail appended
quantity-name: protein stability index

{"columns": ["mutation-key", "recorded-number"],
 "data": [
  ["V17H", 2.62],
  ["I23T", 1.79],
  ["L11D", 2.34],
  ["L6Y", 2.2],
  ["I20K", 2.91],
  ["E9W", 3.68],
  ["E15M", 3.51],
  ["T13Y", 3.33],
  ["V4D", 2.41],
  ["E19C", 3.83],
  ["L11P", 1.97],
  ["F2Y", 2.83],
  ["V12R", 2.51],
  ["E24C", 3.31],
  ["I20M", 3.81],
  ["A16Q", 2.67],
  ["T10S", 2.76],
  ["G22A", 3.71],
  ["F2H", 1.48],
  ["L6T", 2.05],
  ["F2N", 2.45],
  ["E24R", 2.27],
  ["V4K", 1.56],
  ["T18G", 1.49],
  ["V3A", 2.32],
  ["T8R", 4.36],
  ["L11E", 1.73],
  ["E24F", 2.03],
  ["Y5R", 2.97],
  ["E7A", 3.23],
  ["T8K", 2.53],
  ["F2L", 2.25],
  ["L6H", 1.37],
  ["V12G", 2.73],
  ["V17M", 4.75],
  ["T8A", 2.27],
  ["L6N", 2.69],
  ["E7S", 1.76],
  ["L21P", 2.34],
  ["V3P", 2.89],
  ["R14T", 2.48],
  ["L6E", 2.25],
  ["I20N", 1.98],
  ["V4E", 2.07],
  ["E9G", 3.65],
  ["L6S", 1.83],
  ["T10D", 2.79],
  ["L6K", 2.03],
  ["G22D", 3.2],
  ["E24S", 2.53],
  ["E19Q", 3.48],
  ["V3L", 2.35],
  ["L6A", 1.34],
  ["F2E", 2.49],
  ["L6P", 1.85],
  ["I23A", 1.8],
  ["A1F", 3.77],
  ["L11S", 2.48],
  ["T13H", 2.05],
  ["V12I", 3.19]
]}
